- Tested on: MS2 coat protein
- protocol_details: apparent KD of MS2 coat protein; designed switch direction (-1 OFF switch, 1 ON switch): -1; higher = weaker reporter binding
- condition: Eterna round: R95; input ligand: microRNA oligo, concentration not stated
The following sequences are shown together with reported apparent KD of MS2 coat protein values.
Please don't drop the unit; write it after the number.

Example sequences with recorded apparent KD of MS2 coat protein:
1) UUCUAACGAGGAUAUCGAUGGUGGAACAUGAGGAUCACCCAUGUAUGAGAUAUUGUAGUUCGAGAAGGCGUUCAGU [JR_E5_Sub057] (puzzle: Exclusion 5); 36.6 nM
2) GAGGGACAUGAGGAUCACCCAUGUGAGGAUAUGGAGAGGAGGAGGGAGGAGGAGGAGGCCAGAAGGCGCAAGAA [THE BEST I guess] (puzzle: Exclusion 1); 28 nM
3) UCGGCGCGAGGAUAUACGUUUGCUUUUUAGGGUCGUGGCGUACAUGAGGAUCACCCAUGUAGAAGGCGCGCCGC [Apr-15 SS2-29] (puzzle: Exclusion 2); 14.6 nM
4) GAUUAUGCGAGCUUUAGGGACAUGAGGAUCACCCAUGUUCGUCUUAUUAGUCUGGGUACACUGACAUACCUAAAUCU [JMF 71] (puzzle: Sensor v3, turn-off variant 1); 35.2 nM

Q: Could you tell me which apparent KD of MS2 coat protein is on file for UUUUUCGAACAAGCUUCGUACAUGAGGAUCACCCAUGUCGGUAGAUUUGAGUAGGUUUGGAUGGAAGUUCGUCUUAU [JR_SV3TOV1_Sub086] (puzzle: Sensor v3, turn-off variant 1) ?
Result: 65.9 nM

Q: Could you tell me which apparent KD of MS2 coat protein is on file for CAUAGUAAUUAGGAUAUCUGCCGGCUGAGCCGAGGAGAAGGGAUUACAUGAGGAUCACCCAUGUGGUCCUAGAA [Lebireti] (puzzle: Exclusion 6) ?
Result: 20.1 nM

Q: Could you tell me which apparent KD of MS2 coat protein is on file for AGUACUAACACGAAAGUGUUAGUACAAUAAGCUUGUGAAACAUGAGGAUCACCCAUGUCCUCAUCAGCUCGUCUUAU [salish99_TOv2_r3_052] (puzzle: Sensor v3, turn-off variant 2) ?
Result: 409 nM

====

- Test system: MS2 coat protein
- protocol_details: apparent KD of MS2 coat protein; higher = weaker reporter binding
- condition: Eterna round: R107; input ligand: tryptophan 2.4 mM
The following sequences are shown together with reported apparent KD of MS2 coat protein values.
Numeric only. Scale: nM

Example sequences with recorded apparent KD of MS2 coat protein:
1. ACAUGAGGAUCACCCAUGUACAUGAGGGAAGGAGCGGUACAUGAGCCAGGUAGGUCGCCCAACAGCAAAUGGCAUGUACAACGGA [hhnmullin]; 63.5
2. GAACAUGAGGAUCACCCAUGUGAGAAUGAUACCAGUAGAAGAAGAUGCCCUUGGCAGCGUGCGUGAGGAUCACCCAUGUAGGAGG [e-theoA-0]; 25.9
3. UCCUCCUCCGCAAGGAGGAGGAGUUGCGAUACCAGCCCGGAAACGGGCCCUUGGCAGCGCACAUGAGGAUCACCCAUGUCAUGUU [#1 Exclusion - Theophylline A Attempt #8 (HarryS)]; 18
4. ACAUGAGGAUCACCCAUGUGCCGUCUUGAUACCAGACCCGAAGUAGUCCCUUGGCAGCAACUACGUGAGGGUCGCCCAUGUGUAG [5kullin]; 13.7
5. ACAAGUCCUCAUGAUACCAGCGAUGAGACAAAGUCUCAACAUGAGGAUCACCCAUGUACUCGCCCUUGGCAGCAUACGGUUUUUG [Onedxequla]; 573
6. UUGGGUUUGUGAAGGAGCGGGAAAGUUAUAUAGUUAAUCCUAACAUGAGGAUCACCCAUGUCCCAGGUAGGUCGCGCGGGUUUGG [12.P]; 47.3

Q: What is its apparent KD of MS2 coat protein for MS2 coat protein? Entry: UGUAACAUGAGGAUCACCCAUGUAAGUGAUACCAGAUAAGUAGUAGUCCCUUGGCAGCAUAUUGGGCAAGUGUAUAGUCUAUACG [Same State - Theophylline A (Freestyle 6)]
Result: 48.3

Q: What is its apparent KD of MS2 coat protein for MS2 coat protein? Entry: ACGUCAACCCUUAUGUUGAUGCAAGACGAUACCAGCCUGGAUACAGGCCCUUGGCAGCGUCAACAUGAGGAUCACCCAUGUAAUA [(T)''-(MT)'-(Theo)-(Ms2)]
Result: 45.3

Q: What is its apparent KD of MS2 coat protein for MS2 coat protein? Entry: CGAUAUGAGGUCGAUACCAGCAGCUUCAAGCACAUGAGGAUCACCCAUGUCCAUUUUACUUGCCCUUGGCAGCGACUUUGGAAAC [theeternabot_sameState_MS2_Theo_B_23]
Result: 38.4

Q: What is its apparent KD of MS2 coat protein for MS2 coat protein? Entry: UGUACAGACAUCGAAUUCCUAUGUGCUGAAGGAGCGUCGUUGACGACAGGUAGGUCGCAGUUAACAUGAGGAUCACCCAUGUACA [Arg A Ex t5]
Result: 77.5

====

- Test system: MS2 coat protein
- protocol_details: apparent KD of MS2 coat protein, switch ON state; designed switch direction (-1 OFF switch, 1 ON switch): -1; higher = weaker reporter binding
- condition: FMN input: 0 or 200 uM; Eterna round: R93 (includes R88 designs)
parameter: apparent KD of MS2 coat protein

Example sequences with recorded apparent KD of MS2 coat protein:
1) AAAAAACAUGAGGAUCACCCAUGUGAGGAUAUCCUGAAGGGAAUAAAAUAACUCGAAAGGAGAAGGCGCAAAAA [Ex 1 May 32]; 35.2 nM
2) AGGAAACAUGAGGAUCACCCAUGUUAGGAUAUGAACGAAAAUAAAUAAAAAUAAAAGUUCAGAAGGGACAAAAA [66%, Wbt, 19]; 38.4 nM

Q: What is its apparent KD of MS2 coat protein for MS2 coat protein? Entry: AGCUAGUCAGGAUAUACGAACAGGUCAAAAGACGUAAGGGAACAUGAGGAUCACCCAUGUAGAAGGGACUAGCA [Diamond 52]
Result: 32.9 nM

====

- System: MS2 coat protein
- protocol_details: apparent KD of MS2 coat protein; designed switch direction (-1 OFF switch, 1 ON switch): 1; higher = weaker reporter binding
- condition: input ligand: FMN 200 uM
Our labelling divides records by apparent KD of MS2 coat protein into ranges: band A = under 0.05 µM, band B = from 0.05 µM up to 0.2 µM, band C = 0.2 µM and over

1) GGAUGAUAGACAGGAUAUUGAAUGUAAAUAGGACAAGAAGGGUCAAUGAUAUAAACGACCAGUUACAUGAGGAUCACCCAUGUU [JR_SSNG1_Sub023] (Eterna round: R96, puzzle: Same State NG 1); band A
2) UUAAUGAAGUAAGGAUAUACAUGAGGAAUUCUCGUAGAAGGUACUAUACAUGAGGAUCACCCAUGUGCCGGUCAGAAGACUGGA [Mat - Same State NG 1 - JL mod - D11] (Eterna round: R96, puzzle: Same State NG 1); band C

Q: Please report the category associated with GGCCUGGGUCAAGGAUAUGCUACCGUUUCGGUAGCAGAAGGUGAUCACAUGAGGAUCACCCAUGUUUACGCGAAGACGCGCGCC (Eterna round: R96, puzzle: Same State NG 1) , nothing else.
Result: band C

Q: Please report the category associated with AGUCCAGCCUGAGCUGGACAAAAGCAUGUACAUGAGGAUCACCCAUGUUCAUGUACAAGCUUUUUGCUCGUCGGAAU [Mat - hsa-mir-208a - Mod of JL - 49] (Eterna round: R96, puzzle: Sensor for hsa-mir-208a) , nothing else.
Result: band C

Q: Please report the category associated with GGUGCAAUUAACGCCUACAUGAGGAUCACCCAUGUAUGUAGGCAGGAUAUCGUUUGCUUUGCAAACGAGAAGGGCUAUAGUACC [JL SSNG3 1.15] (Eterna round: R96, puzzle: Same State NG 3) , nothing else.
Result: band B

Q: Please report the category associated with ACAUGAGAGAAAGGAUAUGUUGUACCUACAUGUGACAUGAGGAUCACCCAUGUGGUAAGUAUGAGACAGAAGGUUCAGAUAUGU [Equivalence 32 - Jieux - Same State NG 2] (Eterna round: R96, puzzle: Same State NG 2) , nothing else.
Result: band A

Q: Please report the category associated with CCGAAAGGAGUAGGAUAUGUAGGAUAUGCCUACAUGAGGAUCACCCAUGUUCGCAUGGCAGAAGGACAGAAGGACACGGAAACG [pwkr ssNG2 2FMN + 1F5.12] (Eterna round: R96, puzzle: Same State NG 2) , nothing else.
Result: band B

====

- System: MS2 coat protein
- protocol_details: apparent KD of MS2 coat protein; designed switch direction (-1 OFF switch, 1 ON switch): -1; higher = weaker reporter binding
- condition: input ligand: none
We use 30 nM as the dividing line for apparent KD of MS2 coat protein: on or above the line is label 1, below is label 0.

1) AUCGUGCAGCUUUGCUGUACGAGUACAUGAGGAUCACCCAUGUAGGAUAUGGUACGCUUUGCGUGCUAGAAGGAUAUGCGAUUU [EX ENG3 1.47] (Eterna round: R96, puzzle: Exclusion NG 3); label 1
2) GGAGAGAGAGGAUAUGGAGGAAAGAACAUGAGGAUCACCCAUGUAGAGCCUCAAGAUCGACCAGAAGGCUCAGUCC [AK-MS2ROC-r4-exclusion5-10] (Eterna round: R97, puzzle: Exclusion 5); label 0
3) CCAUCACAUGAGGAUCACCCAUGUUAGGAUAUCGUGCUGAUACCAUGUAUUGAAGUAGCGAGAAGGAGCGUUGG [Eternabot (L1) Solution 53] (Eterna round: R97, puzzle: Exclusion 1); label 1
4) AAUGAGGGAGGAUAUACAUUCGGCUGUCAACAGCCCUUGGGACAUGAGGAUCACCCAUGUAGAAGGCCCGAUUA [EX2 B.20] (Eterna round: R97, puzzle: Exclusion 2); label 1
5) AGCUGUGGCCGAGGAUAUGACAUGAGGAUCACCCAUGUACAUAAUUAGGCCUGGUAACAGGCUCGUCAGAAGGCGGUCUCAGCA [Eli eng2 - 007] (Eterna round: R96, puzzle: Exclusion NG 2); label 0

As a next step, examine the sequence that follows.
Q: I'd appreciate it if you could say whether GGCAGGCUUGAGGAUAUGCAUAGGCUAGGCCUAGCAGAAGGCAAGACAUGAGGAUCACCCAUGUGUUCCUUGUG [jl-ex6-4.35 ViennaUCT mod] (Eterna round: R97, puzzle: Exclusion 6) has apparent KD of MS2 coat protein at least equal to 30 nM.
Result: label 1
